Assign GI50 to each entry below.
Test system: HepG2
test-method-notes: Cytotoxicity against Homo sapiens (human) HepG2 cells after 48 hr by SRB assay
Type: functional
condition-parameters: HepG2, 48 h
Answers are plain numbers, in µM.

[
  {
    "smiles-str": "O=c1cc(-c2cccc([N+](=O)[O-])c2)oc2ccccc12",
    "unit-text": "µM",
    "value-measured": 94.9
  }
]

I need GI50 for every entry listed below, if you could help.
1. O=c1cc(-c2ccc(Cl)c([N+](=O)[O-])c2)oc2ccccc12
2. O=c1cc(-c2ccccc2)oc2ccccc12
3. COc1cc(OC)cc(-c2cc(=O)c3ccccc3o2)c1

93.8
50.6
58.8

###

System: MCF7
test-method-notes: Cytotoxicity against Homo sapiens (human) MCF7 cells after 48 hr by SRB assay
Type: functional
condition-parameters: MCF7, 48 h
Counter-ions that a name gives are not always drawn.
Assign labels as follows, please: MET for GI50 below 60 µM; NOT MET for GI50 equal to or exceeding 60 µM.

[
  {
    "molecule": "O=c1cc(-c2ccccc2)oc2cc(O)cc(O)c12",
    "target-or-system": "MCF7",
    "label-value": "NOT MET"
  }
]

GI50 strictly < 60 µM for this molecule? `O=c1cc(-c2ccccc2)oc2ccccc12` NOT MET

GI50 strictly < 60 µM for this molecule? `O=c1cc(-c2cccc([N+](=O)[O-])c2)oc2ccccc12` MET

GI50 strictly < 60 µM for this molecule? COc1cccc2c1C(=O)c1c(O)c3c(c(O)c1C2=O)C[C@@](O)(C(=O)CO)C[C@@H]3O[C@H]1C[C@H](N)[C@H](O)[C@H](C)O1 [DOXORUBICIN HYDROCHLORIDE] MET

GI50 strictly < 60 µM for this molecule? `COc1cc(OC)cc(-c2cc(=O)c3ccccc3o2)c1` MET

GI50 strictly < 60 µM for this molecule? `O=c1cc(-c2ccc(Cl)c([N+](=O)[O-])c2)oc2ccccc12` MET
